pIC50: −log10 of the molar value.
Here, compounds appear alongside pIC50 reported for Tyrosine-protein kinase ABL1 (Homo sapiens, UniProt P00519) in the literature.
endpoint: pIC50

chemical-smiles	result
Nc1cccc(-c2cnc3[nH]cc(C(=O)c4ccccc4F)c3c2)c1	≥ 5.00
CCn1cc(C#Cc2cc(C(=O)Nc3ccc(CN4CCN(C)CC4)c(C(F)(F)F)c3)ccc2C)c2c(N)ncnc21	≥ 8.30
CC(C)c1cncc(NC(=O)Nc2ccc(Oc3ccnc(-c4cnn(C)c4)c3)cc2F)c1	> 7.00
COCCOCCOc1cc2ncn(-c3ccc(C#N)cn3)c2nc1NC1CCOCC1	5.57
COc1ccc(F)c(C(=O)c2c[nH]c3ncc(-c4cccnc4)cc23)c1	≥ 5.00
O=C(c1cccc(O)c1F)c1c[nH]c2ncc(-c3cccs3)cc12	≥ 5.00
Cc1ccc(NC(=O)c2cccc(C(F)(F)F)c2)cc1C#Cc1cnc2c(Nc3cnn(C)c3)ccnn12	8.38
Cc1cc(C(=O)c2c[nH]c3ncc(-c4cccnc4)cc23)n(C)n1	≥ 5.00
Nc1cccc(-n2cnc3cnc4ccc(-c5ccccc5)cc4c32)c1	≥ 6.30
O=S(=O)(NCc1c[nH]c2ncccc12)c1ccc(N2CCOCC2)nc1	≥ 5.00
